molecular target: PD-L1 (programmed death-ligand 1) (UniProt Q9NZQ7 Q9NZQ7:19-238); test: inhibition; PD-1/PD-L1 binding ELISA
Sequence (Q9NZQ7 19-238, one chain of several): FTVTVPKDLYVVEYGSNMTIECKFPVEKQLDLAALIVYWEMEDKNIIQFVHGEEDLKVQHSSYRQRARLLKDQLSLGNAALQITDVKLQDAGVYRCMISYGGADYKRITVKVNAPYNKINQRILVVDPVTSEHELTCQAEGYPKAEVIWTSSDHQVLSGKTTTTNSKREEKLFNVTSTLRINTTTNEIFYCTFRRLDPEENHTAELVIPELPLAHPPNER
Property name: IC50 (nM)
Entry rule: numbers only, all in nM.

Can you look up the measured IC50 of AAGTTTTTGATTGTACCTTAGTG (ssDNA, Bz-dU at every n) [PL021] for me?
27.7

Source: patent US20230055235
